meta.source: ChEMBL document CHEMBL2150883

Test system: Human immunodeficiency virus 1
Experiment: Antiviral activity against HIV1 Ba-L assessed as inhibition of viral replication by CCR5/CXCR4-tropic MAGI assay in presence of 2% serum
Type: functional, organism-based
Conditions: Human immunodeficiency virus 1, Ba-L
PROPERTY_LABEL: EC50

O=C(O)c1cccc(Cc2ccc3ccn(Cn4ccc5ccc(Cc6cccc(C(=O)O)c6)cc54)c3c2)c1 14.6 µM
O=C(O)c1ccc([N+](=O)[O-])c(Cc2ccc3cc[nH]c3c2)c1 18.5 µM
O=C(O)c1cccc(Cc2ccc3cc[nH]c3c2)c1 15.5 µM
COc1cccc(-n2ccc3ccc(Cc4cccc(C(=O)O)c4)cc32)c1 15.8 µM
COc1cc(Cc2ccc3cc[nH]c3c2)cc(C(=O)O)c1 8.65 µM
O=C(O)c1ccc(O)c(Cc2ccc3cc[nH]c3c2)c1 42.7 µM
COc1ccc(COc2cccc(-c3ccc4ccn(Cc5cccc(C(=O)OCc6cccc(C(=O)O)c6)c5)c4c3)c2)cc1 13.8 µM
COc1ccc(C(=O)O)cc1Cc1ccc2cc[nH]c2c1 > 100 µM
COc1ccc(Cn2ccc3ccc(-c4ccc5ccn(Cc6cccc(C(=O)O)c6)c5c4)cc32)cc1 0.92 µM
O=C(O)c1cccc(Cn2ccc3ccc(-c4ccc5ccn(Cc6ccc(F)cc6)c5c4)cc32)c1 1.56 µM
COc1cccc(-c2ccc3ccn(Cc4cccc(C(=O)O)c4)c3c2)c1 18 µM
O=C(O)c1cccc(Cn2ccc3ccc(-c4ccc5cc(Cl)ccc5n4)cc32)c1 48 µM
O=C(O)c1cccc(Cn2ccc3cc(-c4ccc5cc(Cl)ccc5n4)ccc32)c1 6.41 µM
O=C(O)c1cccc(Cn2ccc3ccc(-c4cccc(O)c4)cc32)c1 27.6 µM
COc1ccc(Cn2ccc3ccc(Cc4cccc(C(=O)O)c4)cc32)cc1 55.8 µM
O=C(O)c1cccc(Cc2ccc3[nH]ccc3c2)c1 42.4 µM
O=C(O)c1cccc(COc2cccc(-c3ccc4ccn(Cc5cccc(C(=O)O)c5)c4c3)c2)c1 34.2 µM
O=C(O)c1cc(O)cc(Cc2ccc3cc[nH]c3c2)c1 > 100 µM

----------
Assay: Cytotoxicity against human MAGI-CCR5 cells assessed as cell viability by MTS assay
Assay type: cell-based
Conditions: MAGI-CCR5 cells
PROPERTY_LABEL: CC50

O=C(O)C(=O)c1c[nH]c2cc(Cc3cccc(C(=O)O)c3)ccc12 > 100 µM
O=C(O)c1cccc(Cc2ccc3[nH]ccc3c2)c1 > 400 µM
O=C(O)c1cccc(Cc2ccc3ccn(Cc4cccc(C(=O)O)c4)c3c2)c1 > 200 µM
COc1cccc(-c2ccc3ccn(Cc4cccc(C(=O)O)c4)c3c2)c1 > 500 µM
O=Cc1c[nH]c2cc(Cc3cccc(C(=O)O)c3)ccc12 > 100 µM
O=C(O)c1cc(O)cc(Cc2ccc3cc[nH]c3c2)c1 > 500 µM
O=C(O)c1cccc(-c2ccc3cc[nH]c3c2)c1 > 100 µM
O=C(O)c1cccc(Cc2ccc3c(ccn3Cc3cccc(C(=O)O)c3)c2)c1 > 100 µM
O=C(O)c1cccc(Cc2ccc3ccn(-c4cccc(C(=O)O)c4)c3c2)c1 > 400 µM
O=C(O)c1ccc(O)c(Cc2ccc3cc[nH]c3c2)c1 > 500 µM
O=C(O)c1cccc(COc2cccc(-c3ccc4ccn(Cc5cccc(C(=O)O)c5)c4c3)c2)c1 > 500 µM

----------
Test system: Human immunodeficiency virus 1
Assay: Antiviral activity against HIV1 3B assessed as inhibition of viral replication by CCR5/CXCR4-tropic MAGI assay in presence of 10% serum
Format: functional, organism-based
Settings: Human immunodeficiency virus 1, 3B
Catalogue of EC50 readings, one per entry.
PROPERTY_LABEL: EC50 (µM)

O=C(O)c1cccc(Cc2ccc3cc[nH]c3c2)c1 100
COc1ccc(Cn2ccc3ccc(-c4ccc5ccn(Cc6cccc(C(=O)O)c6)c5c4)cc32)cc1 2.8
